The reported measurements were obtained from patent US20250213707A1.

# Test system: polyclonal antibody ab6982
# assayExplanation: Epitope mapping of polyclonal antibody ab6982 against cyclic peptides of Ad5 fiber and hexon (peptide array)
# Format: binding, rabbits
# measurementConditions: cyclic peptides of fiber protein (clusters 1-7)
# Description: Polyclonal antibody ab6982 (Abcam) was generated by immunizing rabbits with purified AdV. It reacts with all capsid proteins of Ad5 including hexon, fiber and penton. It was shown that the antibody neutralizes Ad5 infection in a bioassay at 1000 adenovirus 5 particles/ml, a 50% inactivation of the adenovirus can be achieved at a 1/25,000 dilution of the antibody. […]
reportedMetric: antibody binding signal ranking from the microarray experiment

1. TTSANNLLFTSEEE [SEQ ID NO: 2056]; 078
2. 201 (HNYINEIFATSSY) [compound 201]; 099
3. 180 (SFLDPEYWNF) [compound 180]; 018
